Attribution: PubChem BioAssay

- target or system: Platelet-activating factor acetylhydrolase (Homo sapiens)
- test description: pPAFAH (PLA2G7) enzyme inhibitors, confirmation, biochemical, fluorescence polarization, human (AID 463230);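 also: 0% = enzyme with DMSO and 100% = wells lacking pPAFAH enzyme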
- condition set: recombinant pPAFAH, FP-Rh probe fluorescence polarization; at 3.39 µM; stronger effect = higher value
The other results are listed elsewhere or left out. The source made the active and inactive calls.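 The calls were made as follows: active = mean inhibition of the triplicate above the hit cutoff set for the earlier primary screen (cut at about 25% in these data); inactive = the rest.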

line notation	target or system	inhibition
O=C(CCC1CCCCC1)Nc1cc(C(F)(F)F)ccc1N1CCOCC1	Platelet-activating factor acetylhydrolase (Homo sapiens)	6.87% (inactive)
Cc1ccccc1-n1c(SCC(=O)Nc2cccc3ccccc23)nc(O)cc1=O	Platelet-activating factor acetylhydrolase (Homo sapiens)	4.9% (inactive)
C=CCn1c(=S)[nH]c2scc(-c3ccco3)c2c1=O	Platelet-activating factor acetylhydrolase (Homo sapiens)	14.1% (inactive)
O=C(Nc1nc(-c2ccco2)c(-c2ccco2)s1)c1ccco1	Platelet-activating factor acetylhydrolase (Homo sapiens)	17.3% (inactive)

###

- test description: VP16 transactivation inhibitors, counter-screen for SRC1 inhibitor project, cell-based, luminescence, high throughput (AID 588824)
- condition set: cell-based VP16 transactivation luciferase luminescence; at 3.6 µM; stronger effect = higher value
# inhibition per entry
readout type: inhibition (%)

compound	unit info	observed value
COc1ccc(CNc2nc(C)cc(C)c2C#N)cc1	%	-3.68
COc1ccc(CCC(C)NCc2cc(OC)cc(OC)c2)cc1 (stereo not drawn)	%	-6.4
COC(=O)c1c(NC(=O)c2cccc([N+](=O)[O-])c2)sc(C(N)=O)c1C	%	47.2
O=C(CCSc1nc2ccccc2s1)N/N=C/c1c(O)ccc2ccccc12	%	32
c1csc(CNc2ncnc3ccc(-c4ccoc4)cc23)c1	%	37
CN(Cc1cnc2nc(N)nc(N)c2n1)c1ccc(C(=O)NC(CCC(=O)O)C(=O)O)cc1 (stereo not drawn)	%	10.5
CC1Cc2ccccc2N1c1ncnc(N)c1[N+](=O)[O-] (stereo not drawn)	%	65.6
COc1cccc(/C=N/NC(=O)C(=O)Nc2ccccc2OC(F)(F)C(F)F)c1O	%	23.4
CCOc1ccc(/C=C2\SC(=S)N(CCCC(=O)NCCCN3CCOCC3)C2=O)cc1	%	7.63
O=c1[nH]c(CSc2nc3ccccc3o2)nc2c1cnn2-c1ccccc1	%	4.42
O=C(Nc1nc(-c2ccc3ccccc3c2)cs1)C1CCN(S(=O)(=O)c2cccs2)CC1	%	33.2
Cc1nn(Cc2ccc(C(=O)Nc3nccs3)cc2)c(C)c1Cl	%	43.8
COc1cc(C(C)=O)ccc1OCC(=O)Nc1ccccc1N1CCCCC1	%	8
CCc1ccc2oc(=O)cc(CN3CCN(Cc4ccccc4)CC3)c2c1	%	2.82
Cc1ccc(/C=C2\SC(=S)N(CCCC(=O)NNC(=O)c3ccccc3O)C2=O)cc1	%	58.3
CC(=O)c1cccc(NC(=O)COc2cc3oc(=O)c(CC(C)O)c(C)c3cc2Cl)c1 (stereo not drawn)	%	22
CCN1/C(=C2\C(=O)N(C)C(=S)N2c2ccccc2)C=Cc2ccccc21	%	2.2
CN1CCN(c2nc(-c3cccs3)nc3ccccc23)CC1	%	10
CC(=O)c1cn(CC(=O)Nc2cccc(C)c2C)c2ccccc12	%	13
CC(=O)Nc1ccccc1OCC(=O)c1cc(C)n(Cc2cccs2)c1C	%	39.3
C#CC[N+](C)(C)CCCCCCCCCCCC	%	36.6
CCCCCC(=O)N1CCN(S(=O)(=O)c2ccc3c(c2)OCCO3)CC1	%	-1.65
Cc1ccc2c(c1)c(/C=C/c1cc[n+](C)cc1)c(C)n2C	%	57.1
Cc1cc(/C=N/Nc2ncnc(N)c2[N+](=O)[O-])c(C)n1-c1ccccc1	%	-10.1
CC(/C=C1\SC(=O)N(CCCC(=O)O)C1=O)=C\c1ccccc1	%	69.2
CC(C)(C)c1ccc(C(=O)O/N=C(\N)c2ccccn2)cc1	%	67.5
Cc1cccc(-n2ncc3c2CCCC3NC(=O)c2ccncc2)c1C (stereo not drawn)	%	26.6
COc1cc([C@@H]2c3cc4c(cc3[C@@H](O[C@@H]3O[C@@H]5CO[C@@H](C)O[C@H]5[C@H](O)[C@H]3O)[C@H]3COC(=O)[C@H]23)OCO4)cc(OC)c1O	%	6.22
c1ccc(CNc2c3ccccc3nc3ccccc23)cc1	%	54.9
O=C(CSc1nnc(-c2cccnc2)s1)Nc1ccnc2ccccc12	%	51.2
Cc1cc(Nc2cccc(Cl)c2)nc(NCc2ccccc2)n1	%	12.4
COC(=O)c1ccccc1-c1c2ccc(=N)cc-2oc2cc(N)ccc12	%	48.3
COc1ccc(Nc2ccnc3ccccc23)cc1	%	26.4
N=c1c2c(-c3ccccc3)c(-c3ccccc3)n(Cc3ccco3)c2ncn1CCO	%	56.2
CN1CCN(CCC(=O)N/N=C/c2cc3c(cc2[N+](=O)[O-])OCO3)CC1	%	-2.21
O=C(Nc1ccc(OCC(F)(F)C(F)F)c(C(F)(F)F)c1)c1ccccc1O	%	6.93
Cc1ccc(NCCN(C)C)c2c(=O)c3cc(O)ccc3sc12	%	29.6
CCCCC(=O)NC(c1cccc([N+](=O)[O-])c1)c1ccc2cccnc2c1O (stereo not drawn)	%	24
NS(=O)(=O)c1ccc(NC(=O)/C=C/c2ccc3c(c2)OCO3)cc1	%	52
O=c1[nH]c(=O)n([C@H]2C[C@H](O)[C@@H](CO)O2)cc1F	%	35.4
CCC(CC)C(=O)N(C)c1c(C)nc2c(OCc3ccc(OC(F)F)cc3)cccn12	%	5.06
CNC1=C(N(C(C)=O)c2ccc(Br)cc2)C(=O)c2ccccc2C1=O	%	84.8
Clc1ccc(-c2csc(=Nc3cccnc3)n2CCCn2ccnc2)cc1Cl	%	39
